Origin of measurements: PubChem BioAssay (NCI)

protocol: NCI Yeast Anticancer Drug Screen. Data for the rad50EPP+ strain (AID 151);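 note: 0% = growth of vehicle-treated control cultures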
reported_conditions: S. cerevisiae rad50 mutant strain, at 1.2 µM, stronger effect = higher value
Compounds without any hit were thinned out: in the full panel of roughly 79,000, 15% have a hit.
experimental_endpoint: growth inhibition (%)
One number for each entry, in %.

compound: Cc1ccc(S(=O)(=O)Oc2cc(Cl)c(Cl)cc2Cl)cc1
growth inhibition (%): -1

Would you mind listing growth inhibition for each of the following compounds?
1. CC(C)[N+]([O-])(CCCNc1c2ccccc2nc2cccc([N+](=O)[O-])c12)C(C)C
2. O=[N+]([O-])c1cc2no[n+]([O-])c2cc1N1CCCCC1
3. CCC[CH2][Ge]([CH2]CCC)([CH2]CCC)[O]C(=O)C(OC)c1ccccc1 (stereo not given)
4. CCOC(=O)C1=C(C(=O)c2ccccc2)C(c2ccccc2[N+](=O)[O-])C(C(=O)c2ccccc2)=C(C(=O)OCC)N1

1: 6; 2: 26; 3: -2; 4: 1
